Where these numbers come from: patent US20130251703A1

biological target: T1, Rat HER3: CD33-[Rat HER3, residues 20-643]-TAG (rat, UniProt Q62799 20-643); assay: solution equilibrium titration (SET), IgG, ECL read-out
T1 construct: also called ra HER3-Tag; not shown: C-terminal TAG (e.g. FLAG TAG)
reported-metric: pKd
The meaning of pKd here: minus log10 of the concentration in molar units.

Answered examples (3):
MOR14534 (antibody, human IgG1, kappa, V domains shown, Tested as IgG) VH: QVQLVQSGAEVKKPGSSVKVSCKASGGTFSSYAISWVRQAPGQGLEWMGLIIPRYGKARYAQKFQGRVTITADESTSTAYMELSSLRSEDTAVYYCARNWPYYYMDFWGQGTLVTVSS VL: EIVLTQSPATLSLSPGERATLSCRASQNIVFNLAWYQQKPGQAPRLLIYDASNRATGIPARFSGSGSGTDFTLTISSLEPEDFAVYYCQQTKNRPPTFGQGTKVEIKR; 7.52
MOR12604 (antibody, V domains shown, Tested as IgG) VH: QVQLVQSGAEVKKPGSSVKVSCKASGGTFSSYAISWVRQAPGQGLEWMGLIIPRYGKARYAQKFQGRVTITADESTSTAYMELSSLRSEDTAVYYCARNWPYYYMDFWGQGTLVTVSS VL: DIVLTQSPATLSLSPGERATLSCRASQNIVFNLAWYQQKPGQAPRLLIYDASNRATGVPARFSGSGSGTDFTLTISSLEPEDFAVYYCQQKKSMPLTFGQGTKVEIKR; 8.28
MOR12615 (antibody, human IgG1, lambda, V domains shown, Tested as IgG) VH: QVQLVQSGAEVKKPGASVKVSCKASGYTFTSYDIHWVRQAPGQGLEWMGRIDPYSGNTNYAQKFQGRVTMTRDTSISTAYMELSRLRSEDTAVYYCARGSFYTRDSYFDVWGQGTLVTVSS VL: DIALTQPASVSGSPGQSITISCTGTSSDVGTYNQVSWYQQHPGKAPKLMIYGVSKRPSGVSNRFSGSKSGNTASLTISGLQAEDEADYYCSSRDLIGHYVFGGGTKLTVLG; 9.51

Next binder, please.
### Prompt Give a short answer stating reported pKd for MOR12921 (antibody, human IgG1, lambda, V domains shown, Tested as IgG) VH: QVQLVQSGAEVKKPGASVKVSCKASGYTFTGYYMHWVRQAPGQGLEWMGDIDPHSGNAVYAQKFQGRVTMTRDTSISTAYMELSRLRSEDTAVYYCARGSFYTRDSYFDVWGQGTLVTVSS VL: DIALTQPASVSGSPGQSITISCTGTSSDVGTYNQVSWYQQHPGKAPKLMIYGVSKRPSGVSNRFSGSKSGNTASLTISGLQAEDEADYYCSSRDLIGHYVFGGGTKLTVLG .
### Response 9.16
